# TARGET ENTITY: T1, P6-AA-12HGe-Q
# T1 chain: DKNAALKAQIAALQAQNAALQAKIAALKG
# ASSAY COMMENT: two-hybrid library CCmax;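 also: natural log of median RNA to DNA barcode read ratio; higher means stronger binding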
# MEASUREMENT CONDITIONS: mean of both orientations
READOUT: interaction score

Task: Requested read-out: interaction score. Entry: DENAALEAYIAALYAYNAALYAEIAALEG [P5-AA-12HGe-Y]
Result: 0.323

1. DENAALEAAIAALAAANAALAAEIAALEG [P5-AA-12HGe-A]
2. DENAALEAEIAALEAENAALEAEIAALEG [P5-AA-12HGe-E]
Task: Sorting by interaction score in descending order, would 1 or 2 appear first? Use the label to indicate which entry you chose.
Result: 2
(2: 2.02, 1: 1.38)

I. DENAALEADIAALDADNAALDAEIAALEG [P5-AA-12HGe-D]
II. DENAALEAHIAALHAHNAALHAEIAALEG [P5-AA-12HGe-H]
Task: Kindly identify the item with the lower interaction score figure among these two: I and II Kindly give the label for the entry you pick.
Result: I
(I: -1.56, II: -0.057)
